Biological target: SCRIB_2, Q14160
Sequence (Q14160 857-960): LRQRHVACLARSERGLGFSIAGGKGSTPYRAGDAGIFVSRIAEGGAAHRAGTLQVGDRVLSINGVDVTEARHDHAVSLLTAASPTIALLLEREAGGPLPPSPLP
Experiment: holdup assay
Parameters: key: below the threshold = too weak to quantify, mostly under pKd 3.1 to 4
Conditions: plain residues with an end cap or a label only (N-terminal biotin on a linker: ttds)
Catalogue of pKd values
When you answer, write just the number.

BINDER: FVETQHQTQV [FAT3, Q8TDW7]
VALUE MEASURED: 4.15

BINDER: NPDALPETLV [ARHGAP6, O43182]
VALUE MEASURED: 3.8

BINDER: PSRDRKETSI [RALBP1, Q15311]
VALUE MEASURED: 3.75

BINDER: KLVIKTETTV [RASSF6, Q6ZTQ3]
VALUE MEASURED: 3.95

BINDER: GARVSKETPL [MAPK12, P53778]
VALUE MEASURED: 3.65

Query string: Which pKd value belongs to GRLLGLETNV [ARHGEF26, Q96DR7] ?
Result string: 4.29

Query string: Which pKd value belongs to PPRQRSETQV [HPV82-E6, Q9IR59] ?
Result string: 4.26
